target: 5-hydroxytryptamine receptor 7 (Rattus norvegicus, UniProt P32305)
Sequence (P32305 whole entry): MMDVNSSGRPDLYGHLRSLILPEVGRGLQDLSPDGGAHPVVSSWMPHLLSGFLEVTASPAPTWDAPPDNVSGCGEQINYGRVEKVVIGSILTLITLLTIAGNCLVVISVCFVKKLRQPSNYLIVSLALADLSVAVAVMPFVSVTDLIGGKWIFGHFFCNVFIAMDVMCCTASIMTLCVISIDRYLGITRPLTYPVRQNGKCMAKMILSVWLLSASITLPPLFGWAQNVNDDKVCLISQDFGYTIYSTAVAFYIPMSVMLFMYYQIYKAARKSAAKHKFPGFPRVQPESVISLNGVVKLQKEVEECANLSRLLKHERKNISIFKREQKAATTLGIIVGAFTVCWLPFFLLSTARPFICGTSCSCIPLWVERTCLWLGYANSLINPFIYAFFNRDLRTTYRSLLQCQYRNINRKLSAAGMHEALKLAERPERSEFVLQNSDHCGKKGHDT
pKi: −log10 of the molar value.
metric-name: pKi

item-smiles | numeric-result
c1ccc2c(N3CCNCC3)cccc2c1 | 7.08

----------
biological target: 5-hydroxytryptamine receptor 7 (Cavia porcellus) (UniProt P50407); experiment: Agonist activity at 5HT7 receptor in guinea pig ileum assessed as inhibition of substance P-induced smooth muscle contraction at 0.5 uM; assay type: functional, tissue-based
Sequence (P50407 whole entry): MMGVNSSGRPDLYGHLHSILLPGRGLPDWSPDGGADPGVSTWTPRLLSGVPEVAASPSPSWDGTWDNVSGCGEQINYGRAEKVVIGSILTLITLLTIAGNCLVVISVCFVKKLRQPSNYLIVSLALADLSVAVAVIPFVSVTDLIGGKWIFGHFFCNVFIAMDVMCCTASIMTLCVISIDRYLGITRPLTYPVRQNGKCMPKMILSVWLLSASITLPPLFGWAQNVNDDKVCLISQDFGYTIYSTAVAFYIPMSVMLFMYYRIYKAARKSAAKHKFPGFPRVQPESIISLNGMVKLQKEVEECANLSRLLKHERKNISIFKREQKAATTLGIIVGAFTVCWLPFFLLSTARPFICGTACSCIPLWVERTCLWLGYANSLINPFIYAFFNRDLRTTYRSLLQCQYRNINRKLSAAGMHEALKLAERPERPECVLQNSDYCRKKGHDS
Activity calls are given as the source filed them. No cut-off for these calls is given here.
Classes used: active, inactive

item-smiles | assigned-label
Fc1ccc(-c2ccccc2N2CCNCC2)cc1 | active
COc1ccc(-c2ccccc2N2CCNCC2)cc1 | active
Cc1nn(C)c(C)c1-c1cccc2c1CC[C@H](N(C)C)C2 | inactive
c1ccc(-c2ccccc2N2CCNCC2)cc1 | active
